# measurement-target: CETP (Homo sapiens (Human))
# protocol-details: Test for inhibition of cholesteryl ester transfer (in vitro)
# experimental-conditions: human plasma as CETP source, LDL from healthy persons as acceptor, rHDL-agarose donor, 37° C.
pIC50: −log10 of the molar value.
readout-type: pIC50

Recorded results for 3 molecules are shown here.
molecule	pIC50
C[C@H]1[C@@H](c2cc(C(F)(F)F)cc(C(F)(F)F)c2)OC(=O)N1CC1=C(c2cc(-c3ccc(C(=O)O)cc3Cl)ccc2F)CCC(C)(C)C1 [Compound 739]	7.69
COC(=O)c1ccc(-c2cnc(OC)c(C3=C(CN4C(=O)O[C@H](c5cc(C(F)(F)F)cc(C(F)(F)F)c5)[C@@H]4C)CC(C)(C)CC3)c2)c(C)c1 [Compound 555]	7.55
COc1ccc(-c2c(F)cc(C(=O)O)cc2F)cc1C1=C(CN2C(=O)O[C@H](c3cc(C(F)(F)F)cc(C(F)(F)F)c3)[C@@H]2C)CC(C)(C)CC1 [Compound 593]	8.82

P: COc1cc(C)c(-c2ccc(C(=O)O)cc2)cc1C1=C(CN2C(=O)O[C@H](c3cc(C(F)(F)F)cc(C(F)(F)F)c3)[C@@H]2C)CC(C)(C)CC1 [Compound 620]
Q: COc1ncc(-c2ccc(C(=O)O)cc2Cl)cc1C1=C(CN2C(=O)O[C@H](c3cc(C(F)(F)F)cc(C(F)(F)F)c3)[C@@H]2C)CC(C)(C)CC1 [Compound 584]
R: COc1ccc(-c2ccc(C(=O)O)cc2C(F)(F)F)cc1C1=C(CN2C(=O)O[C@H](c3cc(C(F)(F)F)cc(C(F)(F)F)c3)[C@@H]2C)CC(C)(C)CC1 [Compound 618]
Descending sort on pIC50 required. // ordering of labels required in reply
R, Q, P

1: C[C@H]1[C@@H](c2cc(C(F)(F)F)cc(C(F)(F)F)c2)OC(=O)N1CC1=C(c2cc(-c3ccc(C(=O)O)cc3C(F)(F)F)ccc2F)CCC(C)(C)C1 [Compound 695]
2: COc1ncc(-c2ccc(C(=O)O)c(F)c2F)cc1C1=C(CN2C(=O)O[C@H](c3cc(C(F)(F)F)cc(C(F)(F)F)c3)[C@@H]2C)CC(C)(C)CC1 [Compound 596]
3: COc1cc(F)c(-c2ccc(C(=O)O)cc2F)cc1C1=C(CN2C(=O)O[C@H](c3cc(C(F)(F)F)cc(C(F)(F)F)c3)[C@@H]2C)CC(C)(C)CC1 [Compound 661]
Sort entries by pIC50 from minimum to maximum value. Provide the labels, sequenced as the question asks.
2, 1, 3

###

# measurement-target: CETP (Homo sapiens (Human), UniProt P11597)
# Sequence (P11597 18-493): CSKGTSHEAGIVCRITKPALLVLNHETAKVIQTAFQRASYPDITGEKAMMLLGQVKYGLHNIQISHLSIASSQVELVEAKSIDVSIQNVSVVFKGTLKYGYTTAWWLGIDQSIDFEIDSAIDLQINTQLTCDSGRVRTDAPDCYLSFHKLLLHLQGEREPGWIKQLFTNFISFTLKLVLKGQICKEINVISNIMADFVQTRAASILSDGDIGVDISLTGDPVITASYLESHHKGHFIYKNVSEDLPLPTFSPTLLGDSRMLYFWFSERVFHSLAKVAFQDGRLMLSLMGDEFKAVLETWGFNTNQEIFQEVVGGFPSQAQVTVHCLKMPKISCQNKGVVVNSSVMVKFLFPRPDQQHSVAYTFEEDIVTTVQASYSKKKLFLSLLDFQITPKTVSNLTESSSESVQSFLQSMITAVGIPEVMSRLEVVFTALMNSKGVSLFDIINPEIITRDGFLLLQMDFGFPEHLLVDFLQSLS
# protocol-details: Test for inhibition of cholesteryl ester transfer (in vitro)
# experimental-conditions: human plasma as CETP source, LDL from healthy persons as acceptor, rHDL-agarose donor, 37° C.
readout-type: IC50 (nM)

// known answers, use as guide
compound-structure	readout-type	value-units	reported-measurement
COc1ccc(-c2ccc(C(=O)O)cc2C)cc1C1=C(CN2C(=O)O[C@H](c3cc(C(F)(F)F)cc(C(F)(F)F)c3)[C@@H]2C)CC(C)(C)CC1	IC50	nM	5.8
Cc1cc(C(=O)O)ccc1-c1cc(C2=C(CN3C(=O)O[C@H](c4cc(C(F)(F)F)cc(C(F)(F)F)c4)[C@@H]3C)CC(C)(C)CC2)ccc1F	IC50	nM	6.6

I: COc1ccc(-c2ccc(C(=O)O)cc2C(F)(F)F)nc1C1=C(CN2C(=O)O[C@H](c3cc(C(F)(F)F)cc(C(F)(F)F)c3)[C@@H]2C)CC(C)(C)CC1
II: COc1ncc(-c2ccc(C(=O)O)cc2F)cc1C1=C(CN2C(=O)O[C@H](c3cc(C(F)(F)F)cc(C(F)(F)F)c3)[C@@H]2C)CC(C)(C)CC1
III: COc1cc(C(F)(F)F)c(-c2ccc(C(=O)O)c(F)c2)cc1C1=C(CN2C(=O)O[C@H](c3cc(C(F)(F)F)cc(C(F)(F)F)c3)[C@@H]2C)CC(C)(C)CC1
Returns the items ordered by IC50, from maximum to minimum. Put the labels in the requested order and list them out.
III, II, I
(III: 27 nM, II: 13 nM, I: 8.9 nM)

Source: patent US9493430B2
